Consider the following binders and their measured pKi readings.
biological target: rat Y1 receptor (rat, UniProt P21555); experiment: 125I-PYY displacement, COS-7 membranes
pKi: −log10 of the molar value. Ends that are not written are not given here.
Property Name: pKi

>>> print(df.to_string())
                                     binder  property_name  relation_sign  recorded_value
0  SPEELNRYYASLRHYLNLVTRQRY [human PYY13-36]            pKi              =            6.89
1                    PLEPVY [human PP31-36]            pKi              <            5.00
2  APLEPEYPGDNATPEQMAQYAAELRRYINMLTRPRY [bovine PP]            pKi              =            6.92
3  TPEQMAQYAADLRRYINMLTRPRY [human PP13-36]            pKi              <            6.00
4  PAEDLARYYSALRHYINLITRQRY (ends and bridges not checked) [porcine NPY13-36]            pKi              =            6.72
5                     FLRF-NH2 [FLRF-amide]            pKi              =            4.35
6  HYINLITRQRY (ends and bridges not checked) [porcine NPY26-36]            pKi              <            6.00
7  DLARYYSALRHYINLITRQRY (ends and bridges not checked) [porcine NPY16-36]            pKi              =            6.85
8  SALRHYINLITRQRY (ends and bridges not checked) [porcine NPY22-36]            pKi              <            6.00
